Hello, the source for this data is the supplement of paper PMC7125110, in case you need it.

B1: glmS ribozyme (parent)
chain: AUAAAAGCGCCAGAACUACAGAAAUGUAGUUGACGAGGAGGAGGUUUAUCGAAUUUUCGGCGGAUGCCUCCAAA

variants of: B1; assay: self-cleavage kobs at 40 uM GlcN6P; higher = faster cleavage; RNA array; details: with glucosamine-6-phosphate
Variants at the floor of the assay were thinned out.

{"columns": ["variantAnnotation", "valueUnits", "relationSymbol", "self-cleavage kobs at 40 uM GlcN6P"],
 "data": [
  ["G43U C67G", "s⁻¹", "=", "7.18e-05"],
  ["C16U C50G G62A C67G", "s⁻¹", "=", "6.99e-05"],
  ["U56A U69A", "s⁻¹", "=", "4e-05"],
  ["C8U A39C", "s⁻¹", "<", "1e-05"],
  ["A39G U55G", "s⁻¹", "=", 0.0012],
  ["A14G G37U", "s⁻¹", "<", "1e-05"],
  ["C10G C61A", "s⁻¹", "<", "1e-05"],
  ["A12U G41U U54A", "s⁻¹", "=", "4.72e-05"],
  ["G40C G44C", "s⁻¹", "<", "1e-05"],
  ["C34A A52G", "s⁻¹", "<", "1e-05"],
  ["A33U U49A C71U", "s⁻¹", "<", "1e-05"]
]}
